Test system: DENV2
Assay Comment: MTT assay, DENV2-infected BHK-21 cells
Type: cell-based, Dengue virus 2
Reported Conditions: Dengue virus
Readout: pEC50
The meaning of pEC50 here: minus log10 of the concentration in molar units.

[[record]]
compound = "Nc1c2ccn([C@@H]3O[C@H](CO)[C@@H](O)[C@H]3O)c2nc[n+]1[O-] [HUP1077, 3-tubercidin N-oxide]"
recorded_measurement = 6.02


Proceed to the following item.
Query: Find the recorded pEC50 belonging to NC(=O)c1ncn([C@@H]2O[C@H](CO)[C@@H](O)[C@H]2O)n1 [Ribavirin] and report it.
Result: 4.55

----------
Assay Comment: Cytotoxicity against Huh7 cells
Type: cell-based
Reported Conditions: human
Readout: CC50

Query: Find the recorded CC50 belonging to Nc1ncnc2c1c(CO)cn2[C@@H]1O[C@H](CO)[C@@H](O)[C@H]1O [HUP1108, 5-hydroxymethyltubercidin] and report it.
Result: > 20 µM

----------
Assay Comment: Cytotoxicity against VeroE6/TMPRSS2 cells
Assay type: cell-based
Reported Conditions: African green monkey
Readout: CC50

Query: Find the recorded CC50 belonging to Nc1ncnc2c1c(CO)cn2[C@@H]1O[C@H](CO)[C@@H](O)[C@H]1O [HUP1108, 5-hydroxymethyltubercidin] and report it.
Result: > 20 µM

----------
Assay Comment: Cytotoxicity against MRC5 cells
Type: cell-based, Human
Reported Conditions: human, mean from three independent experiments (Table 4), read-out: CC50 MRC5, mean
Readout: CC50

Query: Find the recorded CC50 belonging to CCC(CC)COC(=O)[C@H](C)N[P@](=O)(OC[C@H]1O[C@@](C#N)(c2ccc3c(N)ncnn23)[C@H](O)[C@@H]1O)Oc1ccccc1 [Remdesivir, reference compound] and report it.
Result: > 50 µM

----------
In this section we review reported CC50 values for a set of compounds.
Assay Comment: Cytotoxicity assay in BHK-21 cells
Type: cell-based, Hamster
Reported Conditions: hamster
Please state the figure in nM; there is no need to write the unit.

[[record]]
compound = "Nc1ncnc2c1c(/C=N\\O)cn2[C@@H]1O[C@H](CO)[C@@H](O)[C@H]1O [HUP1069, 5-formyltuberucidin oxime]"
recorded_measurement = 180


Proceed to the following item.
Query: Find the recorded CC50 belonging to Nc1ncnc2c1ccn2[C@@H]1O[C@H](CO)[C@@H](O)[C@H]1O [HUP1136, tubercidin] and report it.
Result: 340

----------
Assay Comment: Cytotoxicity against Caco-2 cells
Type: cell-based
Reported Conditions: human
Readout: CC50

Query: Find the recorded CC50 belonging to Nc1ncnc2c1c(CO)cn2[C@@H]1O[C@H](CO)[C@@H](O)[C@H]1O [HUP1108, 5-hydroxymethyltubercidin] and report it.
Result: > 20 µM

----------
Tested on: MRC5 cells
Assay Comment: Cytotoxicity against MRC5 cells
Type: cell-based, Human
Reported Conditions: mean from three independent experiments (Table 4), read-out: CC50 MRC5, mean
Readout: CC50

Query: Find the recorded CC50 belonging to Nc1ncnc2c1c(CO)cn2[C@@H]1O[C@H](CO)[C@@H](O)[C@H]1O [HUP1108, 5-hydroxymethyltubercidin] and report it.
Result: > 50 µM

----------
Tested on: HCoV-229E
Assay Comment: Resazurin reduction assay, HCoV-229E-infected MRC5 cells
Reported Conditions: read-out: HCoV-229E EC50; MRC5 cells, resazurin reduction assay, rescreening of nine tubercidin derivatives
Readout: EC50
Respond with a number, then the unit of measure.

[[record]]
molecule_smiles = "N#Cc1cn([C@@H]2O[C@H](CO)[C@@H](O)[C@H]2O)c2ncnc(N)c12"
readout = "EC50"
recorded_measurement = "2300 nM"


Query: Find the recorded EC50 belonging to `Nc1ncnc2c1c([N+](=O)[O-])cn2[C@@H]1O[C@H](CO)[C@@H](O)[C@H]1O` and report it.
Result: 2000 nM
